System: SNB-19 CNS
protocol: NCI tumour cell line growth inhibition, 48 h
endpoint-name: TGI

Cc1c(Cn2c(C)nc3c(C(=O)O)cc(N4CCOCC4)cc32)cccc1C(F)(F)F ... > 100 µM
Cc1ccc(NCC2(/N=C/c3ccccc3)OC(CO)C(O)C2O)cc1 (stereo not drawn) ... > 100 µM
COc1ccc2c(c1)c1c3c(ccc4ncn2c43)N(CCO)CCN=1 ... 1.46 µM
CCCn1cc2c(=O)[nH]c(SC)nc2n1 ... > 100 µM
Cc1ccc(/C=C/C(=O)c2ccc(Cl)c(Cl)c2)cc1 ... > 100 µM
CC1CCN(C(C)C)P(=S)(Cc2ccccc2)O1 (stereo not drawn) ... > 100 µM
CCCCCCN(CCCCCC)CCC(=O)c1ccc2cc(Br)c3ccccc3c2c1 ... > 100 µM
CSc1cc([C@@H]2C[C@H]2c2ccc(Cl)cc2)on1 ... > 100 µM
Cc1cc2c(F)c(Oc3ncnc(Nc4ccc(N5C[C@@H](C)N[C@@H](C)C5)cc4)c3C#N)cc(F)c2[nH]1 ... 18.8 µM
COc1ccc(C(=O)/C=C/c2ccc(OCCCCCCCCCCOc3ccc(/C=C/C(=O)c4ccc(OC)cc4)cc3)cc2)cc1 ... > 100 µM
O=C1Nc2c(Cl)cc(Cl)cc2/C1=N/N=C/c1ccco1 ... > 100 µM
O=S(=O)(O)c1ccc(N=Nc2ccccc2)cc1 ... > 100 µM
CSC(=O)C[C@@]12O[C@@H]([C@@H](C)C3CCC4[C@@H]5C(O)CC6=CC(=O)C=C[C@]6(C)C5CC[C@@]43C)C[C@](C)(O1)C(C)(C)O2 (stereo partly drawn) ... 33.8 µM
CCN(CC)CCN(CC)CC.CCN(CC)CCN(CC)CC.[Cu+2].[Cu+2].[O-][Cl+3]([O-])([O-])[O-].[OH3+].[OH3+] ... 36.6 µM
S=C(NCc1ccccc1)Nc1sc(=NCc2ccccc2)nc2sc3c(c12)CCN(N1CCc2c(sc4nc(=NCc5ccccc5)sc(NC(=S)NCc5ccccc5)c24)C1)C3 ... > 64.2 µM
Cc1cn(C2CC(n3cc(Cn4ccc(=O)[nH]c4=O)nn3)C(CO)O2)c(=O)[nH]c1=O (stereo not drawn) ... > 100 µM
COc1ccc(N2C(=O)C3CC(c4ccc(Br)cc4)c4c([nH]c5ccccc45)C3C2=O)cc1 (stereo not drawn) ... 10.5 µM
c1ccc(SC(Sc2ccccc2)=C2CCC2)cc1 ... > 100 µM

FYI, the data here is from PubChem BioAssay (NCI).
